The origin of these recorded values is patent US20230272055A1.

- studyTarget: T1, Recombinant MBP-mutCALR Type 1 fusion protein (human)
- T1 construct: custom made at Cepter; also called recombinant mutCALR protein
- assayExplanation: SPR, IgG captured, 1:1 fit, Exp. 2
pKd reference
As a rule, pKd stands for the negative log10 of the concentration, concentration in M.

Worked cases, answers included:
binder="anti-mutCALR antibody clone 67 (antibody, human IgG1, lambda, N297A, V domains shown, human IgG1 N297A variant of clone 6) VH: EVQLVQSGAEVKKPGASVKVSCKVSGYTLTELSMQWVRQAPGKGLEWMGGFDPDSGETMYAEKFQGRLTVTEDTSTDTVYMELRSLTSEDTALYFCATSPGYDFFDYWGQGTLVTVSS VL: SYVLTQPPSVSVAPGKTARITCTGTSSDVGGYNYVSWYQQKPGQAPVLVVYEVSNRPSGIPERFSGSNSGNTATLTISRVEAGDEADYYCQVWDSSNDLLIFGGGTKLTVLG" measvalue=8.48
binder="anti-mutCALR antibody clone 171 (antibody, human IgG1, lambda, N297A, V domains shown, human IgG1 N297A variant of clone 17) VH: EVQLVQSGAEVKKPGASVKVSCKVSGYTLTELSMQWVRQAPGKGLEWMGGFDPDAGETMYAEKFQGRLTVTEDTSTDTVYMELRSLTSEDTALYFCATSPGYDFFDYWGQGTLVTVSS VL: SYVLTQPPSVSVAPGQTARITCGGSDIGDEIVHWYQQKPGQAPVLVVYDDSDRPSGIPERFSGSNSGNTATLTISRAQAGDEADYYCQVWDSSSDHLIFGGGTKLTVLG" measvalue=8.78

Pending binder:
Lookup result for anti-mutCALR antibody clone 125 (antibody, human IgG1, lambda, N297A, V domains shown, human IgG1 N297A variant of clone 15) VH: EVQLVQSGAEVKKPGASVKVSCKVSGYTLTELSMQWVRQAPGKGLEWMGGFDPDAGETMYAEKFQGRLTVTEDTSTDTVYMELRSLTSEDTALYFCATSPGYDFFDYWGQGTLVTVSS VL: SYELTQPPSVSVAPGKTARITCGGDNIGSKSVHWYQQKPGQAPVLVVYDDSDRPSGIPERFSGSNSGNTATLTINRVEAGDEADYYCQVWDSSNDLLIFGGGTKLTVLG ; measured pKd: 8.32
